Tested on: HCT-116
Experiment: Antiproliferative activity against human HCT-116 cells overexpressing MDM2 assessed as cell growth inhibition incubated at 10 uM for 72 hrs by CCK-8 assay relative to control
Format: functional
Readout Label: inhibition at 10 µM (%)
# value in %; strip the unit string

Molecule: O=C(c1ccc(Cl)cc1)C(Cc1ccc(Cl)nc1)C(=O)c1cc(F)ccc1F (stereo unspecified)
Readout Label: inhibition at 10 µM
Value Unit: %
Number: 39.4
//
Molecule: O=C(c1ccc(Cl)cc1)C(Cc1ccc(-c2ccccc2)cc1)C(=O)c1cc(F)ccc1F (stereo unspecified)
Readout Label: inhibition at 10 µM
Value Unit: %
Number: 29.9
//
Molecule: O=C(c1ccc(Cl)cc1)C(Cc1cccc(C(F)(F)F)c1)C(=O)c1cc(F)ccc1F (stereo unspecified)
Readout Label: inhibition at 10 µM
Value Unit: %
Number: 48.4
//
Molecule: O=C(c1ccc(Cl)cc1)C(Cc1cccc(F)c1)C(=O)c1cc(F)ccc1F (stereo unspecified)
Readout Label: inhibition at 10 µM
Value Unit: %
Number: 14.3
//
Molecule: COc1cccc(CC(C(=O)c2ccc(Cl)cc2)C(=O)c2cc(F)ccc2F)c1 (stereo unspecified)
Readout Label: inhibition at 10 µM
Value Unit: %
Number: 26.3

Prompt: inhibition at 10 µM lookup needed for COc1ccc(C2=N[C@H](c3ccc(Cl)cc3)[C@H](c3ccc(Cl)cc3)N2C(=O)N2CCNC(=O)C2)c(OC(C)C)c1 , thanks.
Completion: 49.2

Prompt: What measured inhibition at 10 µM goes with O=C(c1ccccc1)C(Cc1ccccc1)C(=O)c1ccccc1 ?
Completion: 11.2

Attribution: ChEMBL document CHEMBL5360555
